These measurements were taken from the supplement of paper PMC10567573.

B1: ANKRD17 (parent)
chain: EMVRFLLEAGADQEHKTDEMHTAL

Variants of: B1
protocol.text: protein stability index of a GFP-peptide fusion (GPS, HEK-293T) (PSI 1-6); higher = more stable;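 also: lentivirally expressed fusions sorted by FACS into six bins by GFP to DsRed ratio, PSI derived from sequencing read proportions per bin multiplied by bin number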
test.context: c terminus: a fixed tail appended
Entries and their protein stability index values follow.

{"variant.label": "F5L", "protein stability index": 2.56}
{"variant.label": "L6D", "protein stability index": 5.47}
{"variant.label": "A11Y", "protein stability index": 2.01}
{"variant.label": "L7F", "protein stability index": 3.31}
{"variant.label": "V3K", "protein stability index": 4.2}
{"variant.label": "T17L", "protein stability index": 2.22}
{"variant.label": "V3Q", "protein stability index": 4.44}
{"variant.label": "R4N", "protein stability index": 3.22}
{"variant.label": "A23G", "protein stability index": 2.72}
{"variant.label": "H15M", "protein stability index": 2.42}
{"variant.label": "T17K", "protein stability index": 3.12}
{"variant.label": "A11R", "protein stability index": 3.02}
{"variant.label": "H15T", "protein stability index": 3.02}
{"variant.label": "R4K", "protein stability index": 3.22}
{"variant.label": "L24N", "protein stability index": 3.03}
{"variant.label": "G10A", "protein stability index": 2.76}
{"variant.label": "H21L", "protein stability index": 2.66}
{"variant.label": "M2S", "protein stability index": 4.63}
{"variant.label": "A23D", "protein stability index": 3.06}
{"variant.label": "Q13Y", "protein stability index": 1.87}
{"variant.label": "T17D", "protein stability index": 3.12}
{"variant.label": "D18V", "protein stability index": 1.6}
{"variant.label": "K16I", "protein stability index": 2.72}
{"variant.label": "V3D", "protein stability index": 5.21}
{"variant.label": "E19V", "protein stability index": 1.79}
{"variant.label": "R4H", "protein stability index": 3.2}
{"variant.label": "R4F", "protein stability index": 2.77}
{"variant.label": "M2N", "protein stability index": 5.32}
{"variant.label": "D12Q", "protein stability index": 2.66}
{"variant.label": "H15Y", "protein stability index": 1.97}
{"variant.label": "L7G", "protein stability index": 4.76}
{"variant.label": "L7K", "protein stability index": 3.7}
